test: Half life in human liver microsomes at 1 uM preincubated for 5 mins followed by NADPH addition and measured by LC/MS/MS analysis; assay type: ADME, microsome; details: liver microsomes
MEASUREMENT_TYPE: half-life at 1 µM

Sample O=C(N[C@@H](Cn1ccnc1)c1ccc(-c2ccc(F)cc2)cc1Cl)c1ccc(-c2nnc(-c3ccncc3)o2)cc1 ; half-life at 1 µM observed: 53 min

---

assay: Drug uptake in BALB/c mouse liver at 25 mg/kg, po via gavage measured after 4 hrs post dose by […]; type: ADME, organism-based; details: read-out: Drug uptake
Listed molecules paired with reported concentration at 4 h
Give your result in µM as a bare value.

STRUCTURE_STRING: O=C(N[C@@H](Cn1ccnc1)c1ccc(-c2ccc(F)cc2)cc1Cl)c1ccc(-c2nnc(-c3ccccn3)o2)cc1
UNIT_TAG: µM
concentration at 4 h: 3

STRUCTURE_STRING: O=C(N[C@@H](Cn1ccnc1)c1ccc(-c2ccc(F)cc2)cc1F)c1ccc(-c2nnc(-c3ccccc3)o2)cc1
UNIT_TAG: µM
concentration at 4 h: 34

In the following, a different molecule is considered.
Record summary for O=C(N[C@@H](Cn1ccnc1)c1ccc(Cl)cc1Cl)c1ccc(-c2nnc(-c3ccc(OCC(F)(F)F)cc3F)o2)cc1 : reported concentration at 4 h = 32

---

experiment: Half life in Sprague-Dawley rat liver microsomes at 1 uM preincubated for 5 mins followed by NADPH addition and measured by LC/MS/MS analysis; assay type: ADME, microsome; settings: Sprague-Dawley, liver microsomes
MEASUREMENT_TYPE: half-life at 1 µM (min)
Lab book: enter the figure in min, no units written.

Lookup result for O=C(N[C@@H](Cn1ccnc1)c1ccc(-c2ccc(F)cc2)cc1Cl)c1ccc(-c2nnc(-c3ccncc3)o2)cc1 ; measured half-life at 1 µM: 54

---

biological target: Lanosterol 14-alpha-demethylase (Trypanosoma brucei brucei (strain 927/4 GUTat10.1)) (UniProt Q385E8); test: Inhibition of Trypanosoma brucei […] CYP51 expressed in Escherichia coli using [3-3H]-obtusifoliol as substrate after 60 mins by LC-MS analysis
Sequence (Q385E8 1-481): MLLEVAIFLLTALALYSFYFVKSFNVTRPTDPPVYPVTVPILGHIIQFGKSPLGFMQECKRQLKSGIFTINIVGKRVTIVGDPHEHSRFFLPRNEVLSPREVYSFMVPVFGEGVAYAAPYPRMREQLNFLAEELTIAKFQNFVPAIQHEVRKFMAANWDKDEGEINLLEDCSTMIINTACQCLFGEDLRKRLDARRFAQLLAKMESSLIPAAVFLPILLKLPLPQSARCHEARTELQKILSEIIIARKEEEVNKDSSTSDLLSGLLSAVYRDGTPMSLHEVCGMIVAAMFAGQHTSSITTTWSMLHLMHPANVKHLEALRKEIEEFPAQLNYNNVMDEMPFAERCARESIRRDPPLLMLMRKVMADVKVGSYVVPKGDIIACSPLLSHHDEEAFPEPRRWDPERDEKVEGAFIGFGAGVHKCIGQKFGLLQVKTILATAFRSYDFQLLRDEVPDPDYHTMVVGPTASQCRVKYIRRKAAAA
Activity calls are given as the source filed them. No cut-off for these calls is given here.
Reply using exactly one outcome from active, inactive

// known answers, use as guide
STRUCTURE_STRING: O=C(N[C@@H](Cn1ccnc1)c1ccc(Cl)cc1Cl)c1ccc(-c2nnc(-c3ccc(OCC(F)(F)F)cc3F)o2)cc1
CLASS_NAME: active
//
STRUCTURE_STRING: CS(=O)(=O)c1ccc(-c2ccc([C@H](Cn3ccnc3)NC(=O)c3ccc(-c4nnc(-c5ccccc5)o4)cc3)c(Cl)c2)cc1
CLASS_NAME: inactive
//
STRUCTURE_STRING: O=C(N[C@@H](Cn1ccnc1)c1ccc(Cl)cc1Cl)c1ccc(-c2nnc(-c3ccc(F)c(F)c3)o2)cc1
CLASS_NAME: active

Here is another molecule to look at.
**Query** Test call, this molecule: O=C(N[C@@H](Cn1ccnc1)c1c(F)cc(-c2ccc(F)cc2)cc1F)c1ccc(-c2nnc(-c3ccccc3)o2)cc1
**Result** active

---

assay: Drug uptake in BALB/c mouse spleen at 25 mg/kg, po via gavage measured after 4 hrs post dose by […]; type: ADME, organism-based; conditions: read-out: Drug uptake
Listing of recorded concentration at 4 h by entry.
# unit: nM | format: bare number

STRUCTURE_STRING: [2H]c1c([2H])c([2H])c(-c2ccc([C@H](Cn3ccnc3)NC(=O)c3ccc(-c4nnc(-c5ccccc5)o4)cc3)c(Cl)c2)c([2H])c1[2H]
concentration at 4 h [nM]: 3000

Shift focus to the following entry.
Query O=C(N[C@@H](Cn1ccnc1)c1ccc(Cl)cc1Cl)c1ccc(-c2nnc(-c3ccc(F)c(F)c3)o2)cc1 yields concentration at 4 h of 28000

---

biological target: Putative lanosterol 14-alpha-demethylase (Leishmania infantum) (UniProt A2TEF2); assay: Inhibition of Leishmania infantum CYP51 expressed in Escherichia coli using [3-3H]-obtusifoliol as substrate after 60 mins by LC-MS analysis
Sequence (A2TEF2 1-480): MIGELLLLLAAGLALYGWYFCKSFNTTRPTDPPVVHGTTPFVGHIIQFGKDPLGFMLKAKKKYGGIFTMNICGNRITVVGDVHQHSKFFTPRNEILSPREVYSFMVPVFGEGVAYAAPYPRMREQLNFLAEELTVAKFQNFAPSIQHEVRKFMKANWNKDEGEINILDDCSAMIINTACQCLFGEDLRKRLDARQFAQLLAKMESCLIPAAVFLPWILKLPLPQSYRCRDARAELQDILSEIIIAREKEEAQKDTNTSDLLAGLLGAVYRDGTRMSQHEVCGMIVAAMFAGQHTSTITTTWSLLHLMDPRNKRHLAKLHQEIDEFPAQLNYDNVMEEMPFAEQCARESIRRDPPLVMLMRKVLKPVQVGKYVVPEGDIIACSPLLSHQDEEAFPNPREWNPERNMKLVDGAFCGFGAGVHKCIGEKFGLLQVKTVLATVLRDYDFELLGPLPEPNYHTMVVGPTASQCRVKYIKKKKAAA
The source made the active and inactive calls. No cut-off for these calls is given here.
Outcome field: choose from active, inactive

STRUCTURE_STRING: CS(=O)(=O)c1ccc(-c2ccc([C@H](Cn3ccnc3)NC(=O)c3ccc(-c4nnc(-c5ccccc5)o4)cc3)c(Cl)c2)cc1
CLASS_NAME: inactive

STRUCTURE_STRING: O=C(N[C@@H](Cn1ccnc1)c1c(F)cc(-c2ccc(F)cc2)cc1F)c1ccc(-c2nnc(-c3ccccc3)o2)cc1
CLASS_NAME: active

STRUCTURE_STRING: O=C(N[C@@H](Cn1ccnc1)c1ccc(Cl)cc1Cl)c1ccc(-c2nnc(-c3ccc(OCC(F)(F)F)cc3F)o2)cc1
CLASS_NAME: active

**Query** I'd appreciate the recorded outcome for O=C(N[C@@H](Cn1ccnc1)c1ccc(Cl)cc1Cl)c1ccc(-c2nnc(-c3ccc(F)c(F)c3)o2)cc1 from this test.
**Result** active

---

Form field: concentration at 4 h (one value per entry).
assay: Drug uptake in BALB/c mouse lungs at 25 mg/kg, po via gavage measured after 4 hrs post dose by […]; type: ADME, organism-based, Lung; settings: read-out: Drug uptake
Your answer should be a plain number; it is taken to be in µM.

Sample O=C(N[C@@H](Cn1ccnc1)c1ccc(Cl)cc1Cl)c1ccc(-c2nnc(-c3ccc(F)c(F)c3)o2)cc1 ; concentration at 4 h observed: 46

Entry O=C(N[C@@H](Cn1ccnc1)c1ccc(Cl)cc1Cl)c1ccc(-c2nnc(-c3ccc(OCC(F)(F)F)cc3F)o2)cc1 — recorded concentration at 4 h = 38

concentration at 4 h in this record for [2H]c1c([2H])c([2H])c(-c2ccc([C@H](Cn3ccnc3)NC(=O)c3ccc(-c4nnc(-c5ccccc5)o4)cc3)c(Cl)c2)c([2H])c1[2H] : 26

Briefly, concentration at 4 h measured for O=C(N[C@@H](Cn1ccnc1)c1ccc(-c2ccccc2)cc1Cl)c1ccc(-c2nnc(-c3ccccc3)o2)cc1 : 8

Record O=C(N[C@@H](Cn1ccnc1)c1ccc(-c2ccc(F)cc2)cc1Cl)c1ccc(-c2nnc(-c3ccncc3)o2)cc1 . Reported concentration at 4 h: 1

---

Below: a set of entries, each annotated with reported Cmax.
test: Maximum plasma concentration in BALB/c mouse at 25 mg/kg, po via gavage by […]; format: ADME, organism-based; set-up: dose 25 mg/kg, route oral
Dear colleague, please return just the value in µM, with no unit written.

Reference set (2 entries):
STRUCTURE_STRING: O=C(N[C@@H](Cn1ccnc1)c1c(F)cc(-c2ccc(F)cc2)cc1F)c1ccc(-c2nnc(-c3ccccc3)o2)cc1
UNIT_TAG: µM
Cmax: 25
--
STRUCTURE_STRING: O=C(N[C@@H](Cn1ccnc1)c1ccc(-c2ccccc2)cc1Cl)c1ccc(-c2nnc(-c3ccccc3)o2)cc1
UNIT_TAG: µM
Cmax: 28

Reported Cmax for O=C(N[C@@H](Cn1ccnc1)c1ccc(Cl)cc1Cl)c1ccc(-c2nnc(-c3ccc(F)c(F)c3)o2)cc1 was 38

The recorded Cmax for [2H]c1c([2H])c([2H])c(-c2ccc([C@H](Cn3ccnc3)NC(=O)c3ccc(-c4nnc(-c5ccccc5)o4)cc3)c(Cl)c2)c([2H])c1[2H] is 15

Cmax reading for O=C(N[C@@H](Cn1ccnc1)c1ccc(-c2ccc(F)cc2)cc1Cl)c1ccc(-c2nnc(-c3ccccn3)o2)cc1 : 5

Just so you know, measured Cmax for O=C(N[C@@H](Cn1ccnc1)c1ccc(-c2ccc(F)cc2)cc1F)c1ccc(-c2nnc(-c3ccccc3)o2)cc1 came out at 24

// field: Cmax; key: O=C(N[C@@H](Cn1ccnc1)c1ccc(-c2ccc(F)cc2)cc1Cl)c1ccc(-c2nnc(-c3ccccc3)o2)cc1 ; value = 13

For record O=C(N[C@@H](Cn1ccnc1)c1ccc(Cl)cc1Cl)c1ccc(-c2nnc(-c3ccc(OCC(F)(F)F)cc3F)o2)cc1 the listed Cmax is 7

---

# maps each entry to its concentration at 4 h
assay: Drug uptake in BALB/c mouse heart at 25 mg/kg, po via gavage measured after 4 hrs post dose by […]; type: ADME, organism-based; details: read-out: Drug uptake
Write your answer as a measured quantity: the number, then the unit.

Here are 3 molecules together with their reported answers.
STRUCTURE_STRING: O=C(N[C@@H](Cn1ccnc1)c1ccc(-c2ccc(F)cc2)cc1Cl)c1ccc(-c2nnc(-c3ccccc3)o2)cc1
MEASUREMENT_TYPE: concentration at 4 h
RECORDED_RESULT: 3 µM

STRUCTURE_STRING: O=C(N[C@@H](Cn1ccnc1)c1ccc(-c2ccc(F)cc2)cc1F)c1ccc(-c2nnc(-c3ccccc3)o2)cc1
MEASUREMENT_TYPE: concentration at 4 h
RECORDED_RESULT: 16 µM

STRUCTURE_STRING: O=C(N[C@@H](Cn1ccnc1)c1ccc(Cl)cc1Cl)c1ccc(-c2nnc(-c3ccc(OCC(F)(F)F)cc3F)o2)cc1
MEASUREMENT_TYPE: concentration at 4 h
RECORDED_RESULT: 6 µM

We now examine a further molecule.
Lab note: O=C(N[C@@H](Cn1ccnc1)c1ccc(-c2ccc(F)cc2)cc1Cl)c1ccc(-c2nnc(-c3ccncc3)o2)cc1 gave concentration at 4 h of 0.1 µM

Taken from ChEMBL document CHEMBL4257584.
